assay: Population PK: parent MT steady state plasma Cmax,ss in Phase III patients; type: in vivo, human; conditions: human, plasma, oral; parent MT; 8 mg/day – Group 2; read-out: Cmax,ss Mean (SD)
Measure: Cmax
Report field: quantity (unit follows the number).

Any idea what Cmax was measured for CN(C)c1ccc2c(c1)Sc1cc(N(C)C)ccc1N2 [LMTM] ? 0.393 ng/mL

---

test: Population PK: parent MT steady state plasma Cmax,ss in Phase III patients; assay type: in vivo, human; details: human, plasma, oral, 8 mg/day, parent MT; 8 mg/day – Group 1; read-out: Cmax,ss Mean (SD)
Measure: Cmax (ng/mL)
Please state the figure in ng/mL; there is no need to write the unit.

Using the record for CN(C)c1ccc2c(c1)Sc1cc(N(C)C)ccc1N2 , report its Cmax. 0.334

---

test: Population PK: parent MT steady state plasma Cmax,ss in Phase III patients; assay type: in vivo, human; settings: human, plasma, oral, 200 mg/day, parent MT; 200 mg/day; read-out: Cmax,ss Range
Measure: Cmax

Consider the compound CN(C)c1ccc2c(c1)Sc1cc(N(C)C)ccc1N2 [LMTM] and give its measured Cmax. 6.56 to 21.3 ng/mL

---

test: Population PK: parent MT steady state plasma Cmax,ss in Phase III patients; type: in vivo, human; conditions: human, plasma, oral, 8 mg/day, parent MT; 8 mg/day – Group 3; read-out: Cmax,ss Range
Measure: Cmax

Name the recorded Cmax for CN(C)c1ccc2c(c1)Sc1cc(N(C)C)ccc1N2 . 0.415 to 0.478 ng/mL

---

experiment: Population PK: parent MT steady state plasma Cmax,ss in Phase III patients; format: in vivo, human; conditions: human, plasma, oral, 8 mg/day, parent MT; 8 mg/day – Group 1; read-out: Cmax,ss Range
Measure: Cmax

What does the record list as Cmax for CN(C)c1ccc2c(c1)Sc1cc(N(C)C)ccc1N2 ? 0.257 to 0.373 ng/mL

---

assay: Population PK: parent MT steady state plasma Cmax,ss in Phase III patients; assay type: in vivo, human; conditions: human, plasma, oral, 8 mg/day, parent MT; 8 mg/day – Group 2; read-out: Cmax,ss Range
Measure: Cmax

Given the molecule CN(C)c1ccc2c(c1)Sc1cc(N(C)C)ccc1N2 [LMTM] , what is its reported Cmax? 0.373 to 0.414 ng/mL

---

test: Population PK: parent MT steady state plasma Cmax,ss in Phase III patients; assay type: in vivo, human; settings: human, plasma, oral, 8 mg/day, parent MT; 8 mg/day – Group 4; read-out: Cmax,ss Mean (SD)
Measure: Cmax (ng/mL)
# value in ng/mL; strip the unit string

Given the compound CN(C)c1ccc2c(c1)Sc1cc(N(C)C)ccc1N2 , what is its reported Cmax? 0.565

---

experiment: Population PK: parent MT steady state plasma Cmax,ss in Phase III patients; type: in vivo, human; settings: human, plasma, oral, 250 mg/day, parent MT; 250 mg/day; read-out: Cmax,ss Range
Measure: Cmax

Entry CN(C)c1ccc2c(c1)Sc1cc(N(C)C)ccc1N2 has what Cmax? 8.83 to 21.2 ng/mL

---

test: Population PK: parent MT steady state plasma Cmax,ss in Phase III patients; assay type: in vivo, human; details: human, plasma, oral, 250 mg/day, parent MT; 250 mg/day; read-out: Cmax,ss Mean (SD)
Measure: Cmax (ng/mL)
Expressed in ng/mL, but write only the number.

I am curious: what Cmax value has been reported for CN(C)c1ccc2c(c1)Sc1cc(N(C)C)ccc1N2 ? 12.6

---

experiment: Population PK: parent MT steady state plasma Cmax,ss in Phase III patients; assay type: in vivo, human; settings: human, plasma, oral, 150 mg/day, parent MT; 150 mg/day; read-out: Cmax,ss Mean (SD)
Measure: Cmax

Bench note: what Cmax did CN(C)c1ccc2c(c1)Sc1cc(N(C)C)ccc1N2 show? 7.82 ng/mL
